# TESTED TARGET: T1, human ferroportin (SLC40A1) fused in frame with GFP, stably expressed in HEK293 cells (human, UniProt Q9NP59 1-571)
# T1 sequence (looked up): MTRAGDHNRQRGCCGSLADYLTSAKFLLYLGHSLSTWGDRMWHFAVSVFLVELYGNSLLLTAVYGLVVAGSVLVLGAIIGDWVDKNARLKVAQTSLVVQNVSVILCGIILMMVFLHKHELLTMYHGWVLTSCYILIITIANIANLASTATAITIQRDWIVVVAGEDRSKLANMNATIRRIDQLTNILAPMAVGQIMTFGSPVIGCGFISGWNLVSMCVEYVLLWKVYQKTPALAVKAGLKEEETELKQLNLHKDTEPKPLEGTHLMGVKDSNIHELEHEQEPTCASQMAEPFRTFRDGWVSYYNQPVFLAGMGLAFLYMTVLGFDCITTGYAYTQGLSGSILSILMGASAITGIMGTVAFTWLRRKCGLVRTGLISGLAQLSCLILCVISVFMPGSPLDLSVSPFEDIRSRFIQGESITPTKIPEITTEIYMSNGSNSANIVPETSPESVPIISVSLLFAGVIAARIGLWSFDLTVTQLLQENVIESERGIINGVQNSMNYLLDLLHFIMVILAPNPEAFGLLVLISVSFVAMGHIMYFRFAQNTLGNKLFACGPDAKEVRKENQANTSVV
# TEST: cell-based or functional assay
Non-standard residues stand in square brackets, D forms with d. Groups on a side chain read outwards from the residue. *: point of attachment. Dip = N[C@H](C(=O)O)C(c1ccccc1)c1ccccc1; Palmitoyl = CCCCCCCCCCCCCCCC(=O)*; β3hF = N[C@H](CC(=O)O)Cc1ccccc1; Isovaleryl = CC(C)CC(=O)*; βAla = NCCC(=O)O
# Lookup of reported FPN EC50 keyed by entry
RECORDED ENDPOINT: FPN EC50

Gallic_Acid-ETH[Dip]PIIK(Ac)[β3hF]-NH2 [[Gallic_Acid]-E-T-H-[Dpa]-P-I-I-[Lys(Ac)]-[bhPhe]-NH2] = > 3000 nM
Isovaleryl-ETH[Dip]PAIK([βAla-Palmitoyl])[β3hF]-NH2 [Isovaleric Acid-E-T-H-[Dpa]-P-A-I-[Lys(bAla_Palm)]-[bhPhe]-NH2] = 62.9 nM
Succinic_Acid-ETH[Dip]PIIK(Ac)[β3hF]-NH2 [[Succinic_Acid]-E-T-H-[Dpa]-P-I-I-[Lys(Ac)]-[bhPhe]-NH2] = > 3000 nM
